assay-target: Serine/threonine-protein kinase SIK1 (Homo sapiens);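 also: reported as mean inhibition, part of the GSK PKIS screen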
settings: at 0.1 µM
# key: entry, value: inhibition
attribute-measured: inhibition (%)

INSERT INTO assay_data (compound, assay_target, recorded_result) VALUES
  ('[O-][S+]1CCN(Cc2ccc(-c3ccc4ncnc(Nc5ccc(OCc6ccccc6)c(F)c5)c4c3)o2)CC1', 'Serine/threonine-protein kinase SIK1 (Homo sapiens)', 3.06),
  ('COc1cccc(-n2ncc3c(N/N=C/c4cccc(F)c4)ncnc32)c1', 'Serine/threonine-protein kinase SIK1 (Homo sapiens)', 5.56),
  ('O=C1NC(=O)C(c2cccc(Cl)c2)=C1Nc1ccc(O)c(Cl)c1', 'Serine/threonine-protein kinase SIK1 (Homo sapiens)', -4.1),
  ('CCCN1CCC(Oc2cc(Nc3nc(Nc4cccc(F)c4C(N)=O)c4cc[nH]c4n3)c(OC)cc2Cl)CC1', 'Serine/threonine-protein kinase SIK1 (Homo sapiens)', -0.37),
  ('CN1CCC(C(=O)Nc2n[nH]c3nnc(-c4ccccc4)cc23)CC1', 'Serine/threonine-protein kinase SIK1 (Homo sapiens)', 7.3),
  ('Nc1nc(-c2ccccn2)c(-c2ccc3ncccc3n2)s1', 'Serine/threonine-protein kinase SIK1 (Homo sapiens)', 4.91),
  ('CCn1c(-c2nonc2N)nc2c(C#CC(C)(C)O)nc(OC[C@@H](N)c3ccccc3)cc21', 'Serine/threonine-protein kinase SIK1 (Homo sapiens)', 1.01),
  ('NCc1ccc(-c2nc(-c3ccc(Cl)c(O)c3)c(-c3ccncc3)[nH]2)cc1', 'Serine/threonine-protein kinase SIK1 (Homo sapiens)', 0.32),
  ('c1cnn2ncc(-c3ccnc(Nc4ccc5c(c4)OCCO5)n3)c2c1', 'Serine/threonine-protein kinase SIK1 (Homo sapiens)', 9.87),
  ('O=C1NC(=O)C(c2ccc(Cl)cc2)=C1Nc1ccc(Cl)c(C(=O)O)c1', 'Serine/threonine-protein kinase SIK1 (Homo sapiens)', -6.41),
  ('COC(=O)Nc1nc2cc(Oc3cccc(NC(=O)Nc4cc(C(F)(F)F)ccc4F)c3)ccc2[nH]1', 'Serine/threonine-protein kinase SIK1 (Homo sapiens)', 0.37),
  ('CC1=C(C(=O)Nc2ccc3[nH]ncc3c2)C(c2ccc(F)cc2)NC(=O)N1 (centres undefined)', 'Serine/threonine-protein kinase SIK1 (Homo sapiens)', 0.84),
  ('Cc1ccc(C(=O)NC2CCCCC2)cc1-c1ccc(C(=O)NCC2CC2)cc1', 'Serine/threonine-protein kinase SIK1 (Homo sapiens)', 3.08),
  ('COc1ccc(COc2ccc(Cc3cnc(N)nc3N)cc2OC)cc1', 'Serine/threonine-protein kinase SIK1 (Homo sapiens)', -2.62),
  ('Cc1nnc(-c2ccc(C)c(-c3ccc(C(=O)Nc4cccc(C#N)c4)cc3)c2)o1', 'Serine/threonine-protein kinase SIK1 (Homo sapiens)', 3.54),
  ('COc1cc2ncn(-c3cc(O[C@H](C)c4ccccc4Cl)c(C(N)=O)s3)c2cc1OC', 'Serine/threonine-protein kinase SIK1 (Homo sapiens)', 12.6),
  ('COc1cc2ncn(-c3cc(OCc4ccccc4Cl)c(C(N)=O)s3)c2cc1OC', 'Serine/threonine-protein kinase SIK1 (Homo sapiens)', -2.01),
  ('CC1=C(C(=O)Nc2ccc3[nH]ncc3c2)C(c2ccc3ccccc3c2)CC(=O)N1 (centres undefined)', 'Serine/threonine-protein kinase SIK1 (Homo sapiens)', 4.02),
  ('CCn1c(-c2nonc2N)nc2ccncc21', 'Serine/threonine-protein kinase SIK1 (Homo sapiens)', -0.38),
  ('COc1ccc2cc(-c3c(-c4ccncc4)nc(-c4ccc([S+](C)[O-])cc4)n3C)ccc2c1 (centres undefined)', 'Serine/threonine-protein kinase SIK1 (Homo sapiens)', 2.62),
  ('CS(=O)(=O)CCN(CC#N)Cc1ccc(-c2ccc3ncnc(Nc4ccc(OCc5cccc(F)c5)c(Cl)c4)c3c2)o1', 'Serine/threonine-protein kinase SIK1 (Homo sapiens)', 4.78),
  ('CN(C)c1cc2c(Nc3ccc4nc(Cc5ccccc5)[nH]c4c3)ncnc2cn1', 'Serine/threonine-protein kinase SIK1 (Homo sapiens)', 5.71),
  ('CS(=O)(=O)CCNCc1ccc(-c2ccc3ncnc(Nc4ccc(OCc5cccc(F)c5)c(C(F)(F)F)c4)c3c2)o1', 'Serine/threonine-protein kinase SIK1 (Homo sapiens)', 0.39),
  ('NS(=O)(=O)c1ccc(N/N=C2\C(=O)Nc3ccc(C(=O)NCCc4c[nH]cn4)cc32)cc1', 'Serine/threonine-protein kinase SIK1 (Homo sapiens)', 11.7),
  ('Cc1nn(C)c2cc(N(C)c3ccnc(Nc4cccc(S(N)(=O)=O)c4)n3)ccc12', 'Serine/threonine-protein kinase SIK1 (Homo sapiens)', 9.49),
  ('COc1cc2c(cc1Nc1nc(N3CCc4ccccc43)c3cc[nH]c3n1)N(C(=O)CN(C)C)CC2', 'Serine/threonine-protein kinase SIK1 (Homo sapiens)', 3.24),
  ('CCn1c(-c2nonc2N)nc2cnc(Oc3cccc(NC(=O)c4ccc(OCCN5CCOCC5)cc4)c3)cc21', 'Serine/threonine-protein kinase SIK1 (Homo sapiens)', 4.8),
  ('O=C1NC(=O)C(c2ccccc2Cl)=C1Nc1cccc(O)c1', 'Serine/threonine-protein kinase SIK1 (Homo sapiens)', 1.46),
  ('COc1ccccc1Nc1ncc(-c2ccccc2)o1', 'Serine/threonine-protein kinase SIK1 (Homo sapiens)', -1.04);

* * *

Listed compounds paired with reported inhibition
assay-target: Mitogen-activated protein kinase 1 (Homo sapiens) (UniProt P28482);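 also: values are mean inhibition, from the GSK PKIS collection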
Sequence (P28482 whole entry): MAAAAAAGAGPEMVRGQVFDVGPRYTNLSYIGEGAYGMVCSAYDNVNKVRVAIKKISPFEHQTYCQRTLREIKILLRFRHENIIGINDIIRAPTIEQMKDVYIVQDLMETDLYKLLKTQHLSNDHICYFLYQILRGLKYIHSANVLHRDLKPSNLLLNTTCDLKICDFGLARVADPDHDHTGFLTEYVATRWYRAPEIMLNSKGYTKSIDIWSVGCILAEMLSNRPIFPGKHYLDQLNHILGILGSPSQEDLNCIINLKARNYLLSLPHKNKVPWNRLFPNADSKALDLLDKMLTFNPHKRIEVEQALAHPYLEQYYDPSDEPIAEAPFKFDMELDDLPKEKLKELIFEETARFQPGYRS
settings: at 1 µM
attribute-measured: inhibition (%)

INSERT INTO measurements (compound, result_units, recorded_result) VALUES
  ('COc1cc2ncn(-c3cc(O[C@@H](C)c4ccccc4Cl)c(C(N)=O)s3)c2cc1OC', '%', 6.55),
  ('Cc1nn(C)c2cc(N(C)c3ccnc(Nc4cccc(S(N)(=O)=O)c4)n3)ccc12', '%', 4.88),
  ('NC(=O)c1ccc(-c2nc(-c3ccccn3)c(-c3ccc4c(c3)OCO4)[nH]2)cc1', '%', 1.22),
  ('CNC(=O)c1cncc(/C=C/c2c(Cl)cccc2Cl)c1', '%', 4.6),
  ('CC1=C(C(=O)Nc2ccc3[nH]ncc3c2)C(c2ccc(Cl)c(Cl)c2)CC(=O)N1 (stereo not drawn)', '%', 27.4),
  ('Cc1cccc(-c2n[nH]cc2-c2ccc3ncccc3n2)n1', '%', 1.2),
  ('CS(=O)(=O)CCNCc1nc(-c2ccc3ncnc(Nc4ccc(F)c(Cl)c4)c3c2)cs1', '%', 5.04),
  ('CCn1c(-c2nonc2N)nc2cncc(C(=O)N3CC[C@H](N)C3)c21', '%', 7.62),
  ('O=C(Nc1n[nH]c2nc(-c3ccco3)c(Br)cc12)C1CC1', '%', 5.13),
  ('COc1cc(C)c(NC(=O)CN(C)C)cc1Nc1nc(Nc2cccc(F)c2C(N)=O)c2cc[nH]c2n1', '%', 4.47),
  ('COc1ccc(-c2coc3ncnc(N)c23)cc1', '%', 6.4),
  ('NS(=O)(=O)c1cccc(-c2ccc3c(NC(=O)C4CC4)n[nH]c3c2)c1', '%', -5.17),
  ('NS(=O)(=O)c1ccc(N/N=C2\C(=O)Nc3ccc(C(=O)NCCc4c[nH]cn4)cc32)cc1', '%', 17.6),
  ('CCn1c(-c2nonc2N)nc2c(C#CC(C)(C)O)nc(CN3CCCC3)cc21', '%', 0.12),
  ('COc1cccc(-n2ncc3c(N/N=C/c4cccc(F)c4)ncnc32)c1', '%', 3.29),
  ('c1cnn2ncc(-c3ccnc(Nc4ccc5c(c4)OCCO5)n3)c2c1', '%', 24),
  ('CS(=O)(=O)CCNCc1ccc(-c2ccc3ncnc(Nc4ccc(OCc5cccc(F)c5)c(C(F)(F)F)c4)c3c2)o1', '%', 5.42),
  ('CN1CCC(C(=O)Nc2n[nH]c3nnc(-c4ccccc4)cc23)CC1', '%', 5.71),
  ('CS(=O)(=O)CCNCc1ccc(-c2ccc3ncnc(Nc4ccc(OCc5ccccc5)c(Cl)c4)c3c2)o1', '%', 1.18),
  ('COc1ccccc1Nc1ncc(-c2ccccc2)o1', '%', 6.15),
  ('CS(=O)(=O)Nc1ccc(N/C=C2\C(=O)Nc3ccccc32)cc1', '%', -2.51),
  ('Nc1nc(-c2ccccn2)c(-c2ccc3ncccc3n2)s1', '%', 2.54),
  ('COc1cc2ncn(-c3cc(O[C@H](C)c4ccccc4Cl)c(C(N)=O)s3)c2cc1OC', '%', 4.8),
  ('Cc1cc(O)cc(C)c1/C=C/c1cncc(-c2nn[nH]n2)c1', '%', 5.51),
  ('O=C1NC(=O)C(c2cccc(Cl)c2)=C1Nc1ccc(O)c(Cl)c1', '%', 1.91),
  ('CCn1c(-c2nonc2N)nc2cnc(Oc3cccc(NC(=O)c4ccc(OCCN5CCOCC5)cc4)c3)cc21', '%', 4.07),
  ('Nc1ncnc2occ(-c3ccc(NC(=O)Nc4cccc(C(F)(F)F)c4)cc3)c12', '%', 6.77),
  ('CC1=C(C(=O)Nc2ccc3[nH]ncc3c2)C(c2ccc3ccccc3c2)CC(=O)N1 (stereo not drawn)', '%', 39.5);
